ASSAY_NOTES: chemical genetic growth profiling, strain panel (AID 1159580);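 further: tested at 20 µM; growth read once vehicle control cultures reached saturation at 30 °C; 1 = growth at the plate median or of vehicle wells; lower values mean less growth of the strain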
PARTICULARS: S. cerevisiae deletion strains, growth OD, locus YJL129C, strain trk1
In all, about 5,500 compounds went through this assay and about 2,000 (36%) were called active. About 18% were inconclusive and are not listed. No stated cut-off is given here; in the data, active means normalized growth mostly below about 0.91 (no sharp cut-off); inconclusive means no clear call, values can overlap the other calls; inactive means mostly above about 0.92. This is one part of the list.
// allowed return values: YES (active), NO (inactive)

CN1CCC(=C2c3ccccc3CCc3sccc32)CC1
NO
CCN(CC)CCCC(C)Nc1ccnc2cc(Cl)ccc12 (centres undefined)
NO
CCN(CC)CCNC(=O)c1cc(Br)c(N)cc1OC
NO
CC(CCc1ccccc1)NC(C)C(O)c1ccc(O)cc1 (centres undefined)
NO
COc1cc2c(cc1OC)[C@@H]1C(=O)c3ccc4oc(C(C)C)cc4c3O[C@@H]1CO2
NO
CC(N)C(=O)OC(C)(C)Cc1ccc(Cl)cc1 (centres undefined)
NO

Record request — test call for `O=C(O)c1cc2ccccc2c(Cc2c(O)c(C(=O)O)cc3ccccc23)c1O` NO

Hi team, can someone confirm the assay call for COc1ccc(OC)c(C(O)C(C)N)c1 (centres undefined) ? NO

====

This listing pairs compounds with measured normalized growth.
ASSAY_NOTES: chemical genetic growth profiling, strain panel (AID 1159580);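 further: tested at 20 µM; growth read once vehicle control cultures reached saturation at 30 °C; 1 = growth at the plate median or of vehicle wells; lower values mean less growth of the strain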
PARTICULARS: S. cerevisiae deletion strains, growth OD, locus YFL029C, strain CAK1, active compounds read low
Out of some 5,500 compounds screened, about 2,000 (36%) were called active. Another 18% or so got no clear call; they are omitted. Some of the results follow.
Number, no unit, nothing else.

Observe how each entry below is paired with its result.
Cc1cc(NNC(=O)c2ccccc2Cl)nc2c1c(C)nn2C
0.993
Cc1nnsc1C(=O)NNc1ccc(F)cc1F
0.941
O=S(=O)(Nc1cccc(CCc2ccccn2)c1)c1cc(Cl)c(Cl)cc1Cl
0.976
Cc1ccc(-c2csc(-c3cccnc3)n2)c(C)c1
0.943
Cc1ccccc1C(=O)Oc1ccc(C(F)(F)F)cc1[N+](=O)[O-]
0.965

So what does the record say about normalized growth for `CC(C)(C)CN/C(C#N)=C(/C#N)NCc1cccc(Cl)c1` ? 0.992

Need normalized growth, item `O=S(=O)(Nc1cccc2nsnc12)c1cc(Cl)sc1Cl` 0.952

What normalized growth value was documented for this compound, `O=C(NNc1ccccc1F)c1ccno1` ? 0.979

====

Let's look at some compounds and their measured normalized growth.
ASSAY_NOTES: chemical genetic growth profiling, strain panel (AID 1159580);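 further: tested at 20 µM; growth read once vehicle control cultures reached saturation at 30 °C; 1 = growth at the plate median or of vehicle wells; lower values mean less growth of the strain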
PARTICULARS: S. cerevisiae deletion strains, growth OD, locus YMR231W, strain pep5, active compounds read low
Out of some 5,500 compounds screened, about 2,000 (36%) were called active. About 18% were inconclusive and are not listed. The list shows a part of the results.
Write the number on its own, no unit after it.

For `COc1cc2c(cc1OC)[C@@H]1C(=O)c3ccc(O)c(CC=C(C)C)c3O[C@@H]1CO2` , what is its reported normalized growth? 0.959

====

ASSAY_NOTES: chemical genetic growth profiling, strain panel (AID 1159580);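 further: tested at 20 µM; growth read once vehicle control cultures reached saturation at 30 °C; 1 = growth at the plate median or of vehicle wells; lower values mean less growth of the strain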
PARTICULARS: S. cerevisiae deletion strains, growth OD, locus YPL153C, strain RAD53, active compounds read low
Among all 5,500 compounds or so, about 2,000 (36%) were called active. Not shown: some 18% with an inconclusive outcome. This is one part of the list.
Field 'label' (enum: Y / N). Set to Y when normalized growth is strictly under 0.9; else N.

COc1ccc(/C=C2\CSc3ccc(F)cc3C2=O)cc1
N
CSC1=NNC(c2nn(C)cc2Cl)S1 (centres undefined)
Y
O=S(=O)(Nc1cccc(CCc2ccccn2)c1)c1cc(Cl)c(Cl)cc1Cl
N
OC1(C(F)(F)F)CC(C23CC4CC(CC(C4)C2)C3)=NN1 (centres undefined)
Y

Please state whether normalized growth is below 0.9 for `Cc1c(Cc2ccc(F)cc2)c(=O)oc2cc(O)ccc12` N

Dear reviewer, please state whether `Cc1cc(C(=O)Nc2ccc(Cl)cc2)nn1C(C)(C)C` has normalized growth strictly beneath 0.9. N

FYI, the data here is from PubChem BioAssay AID1159580.
